B1: C10orf62 (parent)
chain: GHSHHSHHGHPSHQSHSLPNRRH

# Variants of: B1
# protocol summary: protein stability index of a GFP-peptide fusion (GPS, HEK-293T) (PSI 1-6); higher = more stable;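 also: lentivirally expressed fusions sorted by FACS into six bins by GFP to DsRed ratio, PSI derived from sequencing read proportions per bin multiplied by bin number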
# measurement setup: c terminus: native
parameter: protein stability index
Please give only the number in your answer, with no unit.

protein stability index in this record for `R21T` : 1.81

protein stability index in this record for `S15F` : 2.19

protein stability index in this record for `H10S` : 2.08

protein stability index in this record for `G9L` : 2.26

protein stability index in this record for `H4C` : 2.69

protein stability index in this record for `P11T` : 2.56

protein stability index in this record for `S6D` : 2.08

protein stability index in this record for `H5I` : 2.64

protein stability index in this record for `H5C` : 3.11

protein stability index in this record for `H2E` : 2.36

protein stability index in this record for `H13D` : 2.86

protein stability index in this record for `L18G` : 2.38

protein stability index in this record for `L18D` : 1.85

protein stability index in this record for `S3R` : 3.09

protein stability index in this record for `S15N` : 3.44

protein stability index in this record for `H5P` : 4.04

protein stability index in this record for `R21L` : 1.81

protein stability index in this record for `G1L` : 3.98

protein stability index in this record for `N20M` : 3.84

protein stability index in this record for `L18N` : 2.88

protein stability index in this record for `H16D` : 3.54

protein stability index in this record for `H7D` : 3.05
